measured-endpoint: melting point

Exercise: Give its melting point value. Item: `Cc1nnc(-c2ccc3occ(-c4cccc(OCc5ccccc5)c4)c3c2)o1`
Solution: 96 to 97 °C

Exercise: Same lookup for `COC1(c2cc(F)cc(S(=O)(=O)c3ccc(/C(C)=N/O)cc3)c2)CCOCC1` , please.
Solution: 180 to 181 °C

Exercise: Next: `Cc1ccc2c(c1)c(-c1ccccc1)nn2CO`
Solution: 109 to 111 °C

Exercise: For `CCc1ccc2c(c1)cc(C(=O)O)n2CC(=O)OC` then?
Solution: 181 °C

Exercise: How about this molecule: `CC[C@H]1COC(=O)N1c1nc(-c2ccc(C#N)cc2)c(F)s1`
Solution: 157 to 159 °C

Exercise: Note, next up: `O=C(NCC12CC3CC(CC(C3)C1)C2)c1cc(CCCNCCCO)cnc1Cl`
Solution: 105 to 107 °C

Exercise: Thanks! And `CC(C)S(=O)(=O)ON=C(C#N)c1cccs1` ?
Solution: 80 to 82 °C

Exercise: Please answer likewise for `CC=CC(=O)Nc1n[nH]c2cc(Br)ccc12`
Solution: 232 °C

Exercise: Now this one: CC(=NNc1nc(Cl)c(-c2c(F)cc(F)cc2F)c(NC(C)C(F)(F)F)n1)C(F)(F)F (stereo not given)
Solution: 205 to 207 °C

Exercise: Then CC(O)CC(=O)Nc1c(C(=O)c2ccccc2)[nH]c2cc(Cl)ccc12 (stereo not given) ?
Solution: 159 to 162 °C

* * *

Please go through the items and note down their melting point.

Exercise: Could you share which melting point value was measured for `O=C1CCCc2cc(=O)[nH]cc21` ?
Solution: 246 to 248 °C

Exercise: Same lookup for CC(C)c1cccc(C(C)C)c1NC(=O)C1CC(c2ccc(F)cc2)OC1=O (centres undefined) , please.
Solution: 203 to 205 °C

Exercise: Cool, now `CS(=O)(=O)c1ccc(-n2cncc2-c2ccc(Cl)nc2)cc1`
Solution: 191 to 192 °C

Exercise: Continue with `CCCCCCOCOc1c(C(C)(C)C)cc(-c2ccc(C#N)c(C#N)c2)cc1C(C)(C)C`
Solution: 106 to 107 °C

Exercise: And the next one, `CCCNc1c2c(nc3ccccc13)CCCC2=O` ?
Solution: 145 °C

Exercise: Please answer likewise for CCSC(=S)SC1NC(=O)C1C(C)C (centres undefined)
Solution: 65 to 66 °C

Exercise: Try this compound next: `N#CCOC(=O)c1cc2ccccc2o1`
Solution: 74 to 76 °C

Exercise: Okay, and Cc1nc2ccc3c(c2o1)OC(CN1CC=C(c2c[nH]c4ccc(C#N)cc24)CC1)CO3 (centres undefined) ?
Solution: 119 °C

Exercise: Also check CC(C)OC(=O)C1=C2SCC(=CC(=O)Sc3ccccc3)N2CC1C (centres undefined)
Solution: 153 to 154 °C

Exercise: Moving on to the next compound: `C[Si](C)(C)C1=CC(=O)C([Si](C)(C)C)=CC1=O`
Solution: 180 °C

Exercise: Note, next up: `CCS(=O)(=O)N(c1cc(-c2ncnc(C(F)(F)F)c2Cl)c(F)cc1C#N)S(=O)(=O)CC`
Solution: 191 to 194 °C

Exercise: Now consider O=C(O)CC1c2ccccc2CCN1S(=O)(=O)c1ccc2ccccc2c1 (centres undefined) and answer again.
Solution: 132 °C

Exercise: Field entry: CCC1CCC(=O)C=C1c1ccc(OC(CC)C(=O)O)c(Cl)c1Cl (centres undefined)
Solution: 160 to 162 °C

Exercise: Also check `CCn1ncc2c1ncc1c(NCCCN(C)C)nc3cc(C)nn3c12`
Solution: 178 to 179 °C

Exercise: # repeat for `Cc1[nH]nc(Oc2ccc([N+](=O)[O-])cc2C(F)(F)F)c1C`
Solution: 97 to 99 °C

Exercise: Now the same for CN(Cc1ccccc1)c1cc(C#N)ccc1C1NC(=O)NC1=O (centres undefined)
Solution: 95 to 98 °C

Exercise: Next compound: CC1CCC(C(C)C)C(OC(=O)N[C@@]2(C)CCC(=O)NC2=O)C1 (some centres undefined)
Solution: 170 to 172 °C

Exercise: # repeat for `CCCOc1ccc(C#N)cc1O`
Solution: 99 °C

Exercise: Follow-up entry: `Cc1cccc(C(C)(C)O)c1N`
Solution: 78 to 79 °C

Exercise: Here is the next compound: CC(C)(C)OC(=O)NC1Cc2ccccc2C1Oc1ccccc1Cc1ccccc1 (centres undefined)
Solution: 113 to 114 °C

Exercise: What about this compound? `COc1cccc(Nc2ccnc(Nc3cc(OC)c(OC)c(OCc4ccccc4)c3)n2)c1`
Solution: 83 to 84 °C

Exercise: Do the same for `COCCNc1nc(-n2ccnc2)nc2ccc(CO)cc12` please
Solution: 165 to 168 °C

Exercise: Can you check `OC1(c2ccccc2Cc2ccccc2)CCC2(CC1)OCCO2` next?
Solution: 97 to 98 °C

Exercise: Repeat for the following compound: CCCCC(Cc1ccc(OCCNC(=O)c2ccc(OC(C)C)nc2)cc1)C(=O)O (centres undefined)
Solution: 117 to 118 °C

Exercise: Can you check `O=c1[nH]ncc2cc(Br)ccc12` next?
Solution: 280 to 283 °C

Exercise: And for `COc1cccc(Cc2ccccc2)c1C(=O)O` ?
Solution: 159 to 161 °C

Exercise: Let us now turn to `COC(=O)c1ccc(SC)c(-c2cc(C)no2)c1C`
Solution: 94 to 95 °C

Exercise: # iterate: `O=c1c2c[nH]c3c(c-2nn1-c1ccc(Cl)cc1)COCC3`
Solution: 335 to 337 °C

Exercise: // repeat for CC(=O)CC(C)c1ccc(-c2ccccc2)c(F)c1 (centres undefined) and report
Solution: 85 °C

Exercise: What do we get for `COC(=O)c1c[nH]c(Sc2ccccc2C)c1` ?
Solution: 114 to 119 °C

Exercise: Now consider `CSc1nc(=O)n(C)c(=O)[nH]1` and answer again.
Solution: 243 to 244 °C

Exercise: Same lookup for N#CC(Cl)Cc1ccc(C(=O)O)cc1 (centres undefined) , please.
Solution: 157 °C

Exercise: What do you have for COC(=O)C(C#N)c1nc(-c2c(F)cccc2F)cs1 (centres undefined) ?
Solution: 219 to 224 °C

Exercise: Repeat with `Cn1cc2c(nc(NC(=O)Nc3ccc(CC(=O)NCCOCCOCCNC(=O)OC(C)(C)C)cc3)n3nc(-c4ccco4)nc23)n1`
Solution: 157 to 165 °C

Exercise: What about CC1=NN(C)C(=O)C1C(=O)Nc1cccc2c1CCC2(C)C (centres undefined) ?
Solution: 141 °C

Exercise: Queued: `Oc1ccccc1OCCOCCOc1ccccc1O`
Solution: 85 °C

Exercise: Follow-up item: CC(CO[N+](=O)[O-])NC(=O)[C@@H]1CSC(=O)N1 (some centres undefined)
Solution: 112 to 114 °C

Exercise: Please do the same for `COc1cc(/C=C/C(=O)Nc2ccccc2C(=O)O)ccc1OC1CCCCC1` as well.
Solution: 90 to 92 °C

Exercise: Now consider `CC(C)NC(=O)N1C2=NC(C)(C)N(C(C)C)C(=O)N2c2ccccc21` and answer again.
Solution: 80 to 89 °C

Exercise: Same question for `COc1ccc2nc3c(nc2c1)SC(C#N)=C(C#N)S3` please.
Solution: 154 to 156 °C

Exercise: Lookup `CC(=O)NCCn1ccc2c1-c1ccc(Cl)cc1CC2`
Solution: 144 to 145 °C

Exercise: Further, for `NC(=O)c1cc2cc(Cl)ccc2nc1N` ?
Solution: 250 to 251 °C

Exercise: Repeat with CC(C)=CCCC(C)C1CCC2C3CCC4CC(O)CCC4(C)C3CCC12C (centres undefined)
Solution: 117 to 118 °C

Exercise: Please give the result for `COC(=O)C1=C(O)c2ccc(F)cc2S(=O)(=O)N1C` too.
Solution: 191 °C
